Please go through the items and note down their apparent KD of K4 kissing-loop reporter.
System: K4 kissing-loop RNA reporter;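 further: bound reporter read as fluorescence of individual clusters on recovered sequencing chips by microscopy, with normalized cluster intensities fitted with a binding model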
Test: apparent KD of K4 kissing-loop reporter; higher = weaker reporter binding
Conditions: Eterna round: R107; input ligand: none
Note: unit µM is implicit; provide only the numeric part.

Inquiry: Would you kindly share the measured apparent KD of K4 kissing-loop reporter for CCGUAGAACGGAAGGAGCGCCAUAGAUAAGAAUUCCGUAAGUGAGUGAUGUUCACACAAAUGGCAGGUAGGUCGCCGUUAUUUAG [Arg B Ex t5] ?
Reply text: 0.22

Inquiry: Could you share which apparent KD of K4 kissing-loop reporter value was measured for GGAUAGGAUAGAGGAUAUGGUUUAGGCAAGAAUAACUUGUCAUGUAAAUCCAUGAGGAGUGAUGUUCCAGAAGGCUGUCCUAUCG [MatMod 8 - Jieux - Exclusion - FMN B] ?
Reply text: 0.121

Inquiry: Which measured apparent KD of K4 kissing-loop reporter value corresponds to GGAUAGGAUAGAGGAUAUGGUUUAUGCAGGAAUAACUUAUCGUGUAAAUCCAUAGGGAGUGAUGUUCCAGAAGGCUGUCCUAUCG [MatMod 13 - Jieux - Exclusion - FMN B] ?
Reply text: 0.228

====

Field: apparent KD of MS2 coat protein. Provide a value for each of the sequences that follow.
Tested on: MS2 coat protein
Experiment: apparent KD of MS2 coat protein; designed switch direction (-1 OFF switch, 1 ON switch): -1; higher = weaker reporter binding
Conditions: input ligand: none
Lab book: enter the figure in nM, no units written.

Inquiry: Looking for the measured apparent KD of MS2 coat protein of GGGCCCGGAGGAUAUACAUGAGGAUCACCCAUGUAGGGCCCGGGUAUUUUUGGGCCCUGUAGAAGGCCGGGCCC [-41.6, -38.7 kcal, A 19%, 5c,0] (Eterna round: R97, puzzle: Exclusion 3) , can you help?
Reply text: 12.6

Inquiry: Fill blank: measured apparent KD of MS2 coat protein of the sequence AUAAGGUCAGGAUAUGCUUGGCGGAUUCUGGUGUCCAAAUGACAUGAGGAUCACCCAUGUAGAAGGGACAUCAG [Leonlexe] (Eterna round: R97, puzzle: Exclusion 2) is ____.
Reply text: 14.1

Inquiry: Using the record for UAAUACAAGUAGAGAUUCUACAUGAGGAUCACCCAUGUGCUCGUCUUAUAAAGUACUAUCACGAAAGUGAUAGUACA [Mat - Sensor v3 - turn-off var 1 - Eli Mod - D97] (Eterna round: R96, puzzle: Sensor v3, turn-off variant 1) , report its apparent KD of MS2 coat protein.
Reply text: 22.4

Inquiry: What does the record list as apparent KD of MS2 coat protein for AGAGUGUGAGGAUAUACAUGAGGAUCACCCAUGUAAUAACAGGUUACGGGCGGCACCAGUAGAAGGCACUUGUC [Eternabot (L2) Solution 22] (Eterna round: R97, puzzle: Exclusion 3) ?
Reply text: 28.2

====

Tested on: MS2 coat protein
Assay: apparent KD of MS2 coat protein; higher = weaker reporter binding
Conditions: Eterna round: R107; input ligand: theophylline 2 mM
Would you mind telling me the reported apparent KD of MS2 coat protein of each entry?
Enter your answer as a number in nM; do not include the unit.

Inquiry: Please look up its apparent KD of MS2 coat protein: AUUAAGGAUAUGUAGAAGGCGGAGAAGAGACGAGGACCGGUACGGCCGCCACUCGUGUUAGUUAACAUGAGGAUCACCCAUGUAA [#06 Tryptophan A Same State]
Reply text: 112

Inquiry: What value of apparent KD of MS2 coat protein has been reported for the following sequence? AUUCAUGAAAACAUGACAUGAGGAUCACUCCGAGGACCGGUACGGCCGCCACUCGCGAGGAGGCACAUGAGGAUCACCCAUGUUA [SS Tryp A #2]
Reply text: 143

Inquiry: I'd like to know its apparent KD of MS2 coat protein. The sequence in question is GCCUAGCAUCGAAGGAGCGGGCAUUACGCGCGAAAGCGCGAUGCACGAGGAUCACCCGUGUCCCAGGUAGGUCGCGAUGCUAGGC [SSAB Alternative Aptamer #4 V+V2]
Reply text: 527

Inquiry: Please report the recorded apparent KD of MS2 coat protein for CACGCACGAUCGGCCGCCACUCAUGUAGCUUACAUGAGGAUCACCCAUGUAUUUUCUUUCUUUUAGAGGACCGGGAUCGUGCGUG [#03 Same State - Tryptophan B] .
Reply text: 35

Inquiry: Give its apparent KD of MS2 coat protein value. Item: UGUGCAGGAUGUGUAAAAGGUCUUGGGCAUCGAGGACCGGUACGGCCGCCACUCGGCUGUACAUGAGGAUCACCCAUGUCAGGGU [#1 Same State - Tryptophan A Attempt #21 (HarryS)]
Reply text: 694

Inquiry: Query: apparent KD of MS2 coat protein; subject: UUAUAAGUACCGGUCCUCAGAUCCUCAUGACGAGGACCGGUACGGCCGCCACUCGAAACAUGAGGAUCACCCAUGUAAUAAUAAU [Brourdmod05]
Reply text: 27.7
